Target: T1, human IL-12 (human, UniProt P29460 23-328; P29459 23-219)
T1 construct: Recombinant (Peprotech); FLAG-tagged IL-12 in the flow cytometry assays, biotinylated in the IL-12Rβ2 assay; also called hIL-12
T1 sequence 1: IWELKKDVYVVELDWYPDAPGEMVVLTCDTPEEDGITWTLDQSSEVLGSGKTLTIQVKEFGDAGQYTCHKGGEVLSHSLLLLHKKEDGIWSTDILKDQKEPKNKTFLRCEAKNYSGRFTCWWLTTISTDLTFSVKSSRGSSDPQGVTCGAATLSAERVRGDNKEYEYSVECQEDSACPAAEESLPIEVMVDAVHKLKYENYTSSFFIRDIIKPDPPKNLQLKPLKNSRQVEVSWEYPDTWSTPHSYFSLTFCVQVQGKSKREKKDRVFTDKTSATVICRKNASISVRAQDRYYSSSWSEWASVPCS
T1 sequence 2: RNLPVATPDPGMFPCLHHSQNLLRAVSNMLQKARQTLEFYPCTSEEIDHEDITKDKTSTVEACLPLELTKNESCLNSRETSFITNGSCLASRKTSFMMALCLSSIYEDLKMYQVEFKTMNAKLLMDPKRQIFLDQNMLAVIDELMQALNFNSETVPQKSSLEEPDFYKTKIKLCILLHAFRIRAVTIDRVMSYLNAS
Test: SPR, IgG on Protein A
pKd: −log10 of the molar value.
In this section we review reported pKd values for a set of binders.
Readout name: pKd

Binder | Quantitative result
Antibody 182 (antibody, human IgG1, kappa, V domains shown) VH: EVQLVQSGAEVKKPGATVKISCKASGYTLSDYYLHWVRQAPEKGLEWMGWIDPENGDTEHAPKFQGRVTITADTSTDTGYLELSSLRSEDTAVYYCAANKELRYFDVWGQGTLVTVSS VL: DIQMTQSPSSVSASVGDRVTITCRASQSISINLHWYQQKPGKAPKLLIYFASQSISGVPSRFSGSGSGTDFSLTINSLQTEDFATYYCQQSNSFPLTFGGGTKVEIKR | 10.46
Antibody 180 (antibody, human IgG1, kappa, V domains shown) VH: EVQLVQSGAEVKKPGATVKISCKASGYTLSDYYLHWVRQAPEKGLEWMGWIDPENGDTESAPKFQGRVTITADTSTDTGYLELSSLRSEDTAVYYCAANKELRYFDVWGQGTLVTVSS VL: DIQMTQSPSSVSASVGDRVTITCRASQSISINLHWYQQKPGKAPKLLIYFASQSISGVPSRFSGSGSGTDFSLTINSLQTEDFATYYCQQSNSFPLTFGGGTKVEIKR | 10.49
Antibody 181 (antibody, human IgG1, kappa, V domains shown) VH: EVQLVQSGAEVKKPGATVKISCKASGYTFSDYYLHWVRQAPEKGLEWMGWIDPENGDTEHAPKFQGRVTITADTSTDTGYLELSSLRSEDTAVYYCAANKELRYFDVWGQGTLVTVSS VL: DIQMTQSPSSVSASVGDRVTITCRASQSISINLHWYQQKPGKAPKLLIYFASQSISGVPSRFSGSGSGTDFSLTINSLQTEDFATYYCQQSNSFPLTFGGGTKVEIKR | 10.17
Antibody 198 (antibody, human IgG1, kappa, V domains shown) VH: QVQLVQSGAEVKKPGASVKVSCKASGYAFTDYYLHWVRQAPGQGLEWMGWIDPENGDTEYAPKFQGRVTMTTDTSTSTAYMELRSLRSDDTAVYYCAANKELRYFDVWGQGTMVTVSS VL: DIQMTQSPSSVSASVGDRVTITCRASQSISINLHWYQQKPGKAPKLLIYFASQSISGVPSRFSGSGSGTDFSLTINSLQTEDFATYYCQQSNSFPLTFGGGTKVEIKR | 9.80
Antibody 177 (antibody, human IgG1, kappa, V domains shown) VH: EVQLVQSGAEVKKPGATVKISCKASGYTFSDYYLHWVRQAPEKGLEWMGWIDPENGDTESAPKFQGRVTITADTSTDTGYLELSSLRSEDTAVYYCAANKELRYFDVWGQGTLVTVSS VL: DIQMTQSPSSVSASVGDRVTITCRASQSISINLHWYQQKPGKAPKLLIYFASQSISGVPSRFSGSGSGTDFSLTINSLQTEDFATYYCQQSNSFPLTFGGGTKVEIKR | 10.34

Entry source: patent US20110262445A1
